ASSAY SUMMARY: Competitive inhibition of human erythrocyte membrane Ins(1,4,5)P3 5-phosphatase
EXPERIMENTAL READOUT: Ki (nM)
# output: bare number, implied unit nM

# input Consider the compound shown here: OC1C(O)C(OP(O)(O)=S)C(OP(O)(O)=S)C(O)C1OP(O)(O)=S (stereo in doubt) What is its recorded Ki?
# output 1700

----------
In this section we review reported Ki values for a set of molecules.
ASSAY SUMMARY: Competitive inhibition of Inositol 1,4,5-trisphosphate 5-phosphatase
Set-up: species or system Homo sapiens
# output: bare number, implied unit µM

>>> df
                         compound_structure  experimental_readout  units_text  value
0  O=P(O)(O)O[C@H]1[C@H](O)[C@@H](OP(=O)(O)O)[C@H](O)[C@@H](OP(=O)(O)O)[C@H]1O                    Ki          µM     45

Now let's try a different one.
# input Consider the molecule shown here: O=P(O)(O)O[C@@H]1[C@H](O)[C@H](O)[C@@H](OP(=O)(O)O)[C@H](OP(=O)(O)O)[C@H]1O What is its recorded Ki?
# output 39

----------
In this section we review reported pKi values for a set of compounds.
ASSAY SUMMARY: Tested for binding affinity against Ins(1,4,5)-P3 5-phosphatase
Parameters: species or system Homo sapiens
On this scale, pKi is minus log10 of a concentration expressed in M (mol/L).

>>> df
                                   compound  value
0  OC1C(OP(O)(O)=S)C(O)C(OP(O)(O)=S)C(O)C1OP(O)(O)=S (configuration not stated)   6.37

# input Consider the compound shown here: OC1C(O)C(OP(O)(O)=S)C(OP(O)(O)=S)C(O)C1OP(O)(O)=S (configuration not stated) What is its recorded pKi?
# output 6.30

----------
ASSAY SUMMARY: Tested for binding affinity against human erythrocyte 5-phosphatase
In this section we review reported pKi values for a set of compounds.
On this scale, pKi is minus log10 of a concentration expressed in M (mol/L).

>>> print(df.to_string())
                                   compound  experimental_readout  value
0  O=P(O)(O)O[C@@H]1[C@H](O)[C@H](O)[C@@H](OP(=O)(O)O)[C@H](OP(=O)(O)O)[C@H]1O                   pKi   3.91

# input Consider the compound shown here: OC1C(O)C(OP(O)(O)=S)C(OP(O)(O)=S)C(O)C1OP(O)(O)=S (stereo in doubt; 24) What is its recorded pKi?
# output 6.52

----------
In this section we review reported Ki values for a set of compounds.
ASSAY SUMMARY: Binding affinity for Inositol 1,4,5-trisphosphate kinase
# output: bare number, implied unit µM

>>> df
                                   compound  experimental_readout  units_text  value
0  OC1C(O)C(OP(O)(O)=S)C(OP(O)(O)=S)C(O)C1OP(O)(O)=S (stereo in doubt)                    Ki          µM   1.46

Now let's try a different one.
# input Consider the compound shown here: OC1C(O)C(OP(O)(O)=S)C(OP(O)(O)=S)C(O)C1OP(O)(O)=S (stereo in doubt; 24) What is its recorded Ki?
# output 247
